Molecular target: human leukocyte elastase (Homo sapiens, UniProt P08246)
Sequence (P08246 30-267): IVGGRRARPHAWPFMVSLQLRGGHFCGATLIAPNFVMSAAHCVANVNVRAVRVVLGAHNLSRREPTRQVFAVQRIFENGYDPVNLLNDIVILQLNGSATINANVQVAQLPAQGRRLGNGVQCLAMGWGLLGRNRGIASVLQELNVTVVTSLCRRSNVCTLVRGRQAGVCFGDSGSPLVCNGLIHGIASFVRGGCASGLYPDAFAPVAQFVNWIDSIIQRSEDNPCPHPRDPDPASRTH
Assay: elastase inhibition using human leukocyte elastase (kon and Ki*)
Type: biochemical
Details: Ki* = koff/kon; read-out: Elastase Ki *
measurementType: Ki (µM)
Just the number please, in µM, no unit attached.

Study these solved cases before continuing.
Nc1cccc(-n2nnnc2SCN2C(=O)c3ccccc3S2(=O)=O)c1 [Example 30C]	0.017
CCOc1cccc2c1C(=O)N(CSc1nnnn1CC(=O)N(C)C)S2(=O)=O [Example 30AX]	0.016
O=C1c2ccccc2S(=O)(=O)N1CF	0.013
O=C1c2c(Cl)cccc2S(=O)(=O)N1Cn1nnn(-c2ccccc2)c1=S	0.006
O=C1c2ccccc2S(=O)(=O)N1CSc1nc2ccc([N+](=O)[O-])cc2o1 [Example 30BE]	0.25
O=C1c2ccccc2S(=O)(=O)N1CS(=O)(=O)c1c(Cl)cccc1Cl [Example 32A]	0.145
CCC(CC)c1cccc2c1C(=O)N(CCl)S2(=O)=O [Example 22C, 2-chloromethyl-4-(3-pentyl) saccharin]	0.0004

Measured on human leukocyte elastase (Homo sapiens, UniProt P08246), O=C1c2ccccc2S(=O)(=O)N1CSc1nc(-c2ccccc2)ns1 [Example 30AF] has a documented Ki of 0.0125

====

Molecular target: human leukocyte elastase (Homo sapiens)
Sequence (P08246 30-267): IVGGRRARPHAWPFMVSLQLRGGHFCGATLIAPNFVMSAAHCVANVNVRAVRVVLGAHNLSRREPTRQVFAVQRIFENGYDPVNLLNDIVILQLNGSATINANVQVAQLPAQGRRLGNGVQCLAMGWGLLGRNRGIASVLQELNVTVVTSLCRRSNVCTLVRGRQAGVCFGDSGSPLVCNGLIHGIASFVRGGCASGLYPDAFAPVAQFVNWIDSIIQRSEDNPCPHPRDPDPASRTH
Experiment: elastase inhibition using human leukocyte elastase (kon and Ki*)
Assay type: biochemical
Conditions: Ki* = koff/kon; read-out: Elastase Ki *
measurementType: pKi
# pKi is unitless: minus log10 of the molar concentration; print number only

Study these solved cases before continuing.
CC(C)c1cccc2c1C(=O)N(CSc1nnnn1C)S2(=O)=O [Example 30AN]	7.52
COCCOCCOc1ccc(OC)c2c1S(=O)(=O)N(CSc1nnnn1-c1ccccc1)C2=O [Example 30M]	8.00
CC(C)c1cccc2c1C(=O)N(Cn1nnn(-c3ccccc3)c1=S)S2(=O)=O [Example 30AJ]	7.81

Input O=C1c2ccccc2S(=O)(=O)N1CSc1nncn1-c1ccccc1 [Example 30I] . Output pKi: 6.19

Input COC(=O)c1cc(C(=O)OC)cc(-n2nnnc2SCN2C(=O)c3ccccc3S2(=O)=O)c1 [Example 30E] . Output pKi: 7.90

Input O=C1c2ccccc2S(=O)(=O)N1CSc1nc2ccc([N+](=O)[O-])cc2s1 [Example 30BD] . Output pKi: 8.10

Input COc1ccc2c(c1OC)C(=O)N(CCl)S2(=O)=O [Example 22F] . Output pKi: 8.19

Input O=C(O)CCC(=O)Nc1cccc(-n2nnnc2SCN2C(=O)c3ccccc3S2(=O)=O)c1 . Output pKi: 7.66

Input O=C1c2ccccc2S(=O)(=O)N1CS(=O)(=O)c1ccccc1 . Output pKi: 7.09

Input O=C1c2ccccc2S(=O)(=O)N1Cn1nnn(-c2cccnc2)c1=S [Example 30R] . Output pKi: 7.44

Input O=C1C=Cc2ccc(OCN3C(=O)c4ccccc4S3(=O)=O)c3cccc1c23 [Example 30G] . Output pKi: 8.11

Input O=C1c2c(Cl)cccc2S(=O)(=O)N1CCl . Output pKi: 9.30

====

Target: human leukocyte elastase (Homo sapiens)
Assay: elastase inhibition using human leukocyte elastase (kon and Ki*)
Type: biochemical
Settings: rate of inactivation of enzyme; value is 10^-3 × kon; read-out: Elastase 10^-3 × kon
measurementType: kon (M⁻¹ s⁻¹)
Just the number please, in M⁻¹ s⁻¹, no unit attached.

Study these solved cases before continuing.
COC(=O)c1cc(C(=O)OC)cc(-n2nnnc2SCN2C(=O)c3ccccc3S2(=O)=O)c1 [Example 30E]	7300
CCc1cccc2c1C(=O)N(CSc1nnnn1CCN1CCOCC1)S2(=O)=O [Example 30J]	14000
Cc1nnc(SCN2C(=O)c3c(C(C)C)cccc3S2(=O)=O)s1 [Example 30AM]	12300
O=C1c2ccccc2S(=O)(=O)N1Cn1nnn(-c2cccnc2)c1=S [Example 30R]	2300
O=C1c2ccccc2S(=O)(=O)N1CSc1nnnn1C1CCCCC1	2500

Consider the additional compound presented here.
Input O=C1c2ccccc2S(=O)(=O)N1CSc1nnnn1CCN1CCOCC1 [Example 30BG] . Output kon: 1700

====

Molecular target: human leukocyte elastase (Homo sapiens)
Sequence (P08246 30-267): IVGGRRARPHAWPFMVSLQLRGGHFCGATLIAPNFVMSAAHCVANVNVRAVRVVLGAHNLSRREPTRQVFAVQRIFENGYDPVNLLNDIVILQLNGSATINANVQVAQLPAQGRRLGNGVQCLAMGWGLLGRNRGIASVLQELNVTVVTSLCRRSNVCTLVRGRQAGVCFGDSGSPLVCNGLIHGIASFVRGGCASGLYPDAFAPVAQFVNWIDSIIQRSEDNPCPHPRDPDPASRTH
Assay: elastase inhibition using human leukocyte elastase (kon and Ki*)
Assay type: biochemical
Details: Ki* = koff/kon; read-out: Elastase Ki *
The following compounds are listed with their measured Ki values.
Just the number please, in nM, no unit attached.

Study these solved cases before continuing.
O=C1c2ccccc2S(=O)(=O)N1CSc1nnnn1-c1cccnc1 [Example 30Q]	70.4
Cn1nnc(SCN2C(=O)c3ccccc3S2(=O)=O)n1 [Example 30X]	143
O=C1c2ccccc2S(=O)(=O)N1COc1ccc([N+](=O)[O-])cc1	69
O=C(CC(c1ccccc1)c1ccccc1)Nc1ccc2c(c1)C(=O)N(CSc1nnnn1-c1ccccc1)S2(=O)=O	2600
O=C(O)Cn1nnnc1SCN1C(=O)c2ccccc2S1(=O)=O	256
O=C(O)c1ccc(-n2nnnc2SCN2C(=O)c3ccccc3S2(=O)=O)cc1 [Example 30D]	85

Input CN(C)C(=O)Cn1nnnc1SCN1C(=O)c2ccccc2S1(=O)=O [Example 30AS] . Output Ki: 40

Input CCc1cccc2c1C(=O)N(CSc1nnnn1CC(=O)N(C)C)S2(=O)=O [Example 30AV] . Output Ki: 15

Input O=C1c2c(Br)cccc2S(=O)(=O)N1CCl . Output Ki: 0.5

Input CN(C)CCSc1nnc(SCN2C(=O)c3ccccc3S2(=O)=O)s1 [Example 33B] . Output Ki: 18

Input Cn1nnc(=S)n1CN1C(=O)c2ccccc2S1(=O)=O [Example 30W] . Output Ki: 80

====

The following compounds are listed with their measured pKi values.
Target: human leukocyte elastase (Homo sapiens)
Assay: elastase inhibition using human leukocyte elastase (kon and Ki*)
Assay type: biochemical
Settings: Ki* = koff/kon; read-out: Elastase Ki *
# pKi is unitless: minus log10 of the molar concentration; print number only

Study these solved cases before continuing.
O=C1c2ccccc2S(=O)(=O)N1CSc1nnnn1CCO [Example 30AQ]	6.59
O=C1c2ccccc2S(=O)(=O)N1CSc1nnc(SCCN2CCCCC2)s1 [Example 33C]	6.46
COC(=O)c1cccc2c1C(=O)N(CCl)S2(=O)=O [Example 22G]	7.30

Input Cc1ccc(C)c2c1C(=O)N(CCl)S2(=O)=O [Example 29, 2-chloromethyl-4,7-dimethylsaccharin] . Output pKi: 6.92

Input CCOc1cccc2c1C(=O)N(CCl)S2(=O)=O [Example 22H] . Output pKi: 8.92

====

Biological target: human leukocyte elastase (Homo sapiens)
Sequence (P08246 30-267): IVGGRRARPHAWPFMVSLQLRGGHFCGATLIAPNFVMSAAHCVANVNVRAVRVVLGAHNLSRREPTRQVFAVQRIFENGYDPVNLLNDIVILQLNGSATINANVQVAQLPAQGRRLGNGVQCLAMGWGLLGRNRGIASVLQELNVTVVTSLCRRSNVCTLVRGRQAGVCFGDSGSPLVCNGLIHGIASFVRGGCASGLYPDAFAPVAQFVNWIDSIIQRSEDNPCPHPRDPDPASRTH
Test: elastase inhibition using human leukocyte elastase (kon and Ki*)
Type: biochemical
Conditions: Ki* = koff/kon; read-out: Elastase Ki *
measurementType: Ki (nM)
Just the number please, in nM, no unit attached.

O=C1c2c(Cl)cccc2S(=O)(=O)N1CSc1nnnn1-c1ccccc1 [Example 4]	12
Cc1nnc(SCN2C(=O)c3c(C(C)C)cccc3S2(=O)=O)s1 [Example 30AM]	4.5
O=C1c2ccccc2S(=O)(=O)N1C[S+]([O-])c1ncccn1 (stereo not shown) [Example 13, 2-(2-pyrimidylsulfinylmethyl)saccharin]	285

Consider the additional compound presented here.
Input O=C1c2ccccc2S(=O)(=O)N1C(Sc1nnnn1-c1ccccc1)c1ccccc1 (stereo not shown) [Example 19] . Output Ki: 8500
